molecular target: EGFR T790M/L858R/C797S (NCI-H1975+CS cells) (Homo sapiens, UniProt P00533, C797S/L858R/T790M); construct: NCI-H1975+CS (harboring EGFR heterozygous T/790M/L858R/C797S mutations) was generated using CRISPR technology; host or cells: NCI-H1975+CS (CRISPR-edited NCI-H1975); assay: EGFR (L858R) degradation analysis, Total EGFR (L858R) HTRF, NCI-H1975+CS cells; format: cell-based; details: 6 hours, read-out: H1975 C797S clone EGFR DC50
Sequence (P00533 25-1210 T790M/C797S/L858R): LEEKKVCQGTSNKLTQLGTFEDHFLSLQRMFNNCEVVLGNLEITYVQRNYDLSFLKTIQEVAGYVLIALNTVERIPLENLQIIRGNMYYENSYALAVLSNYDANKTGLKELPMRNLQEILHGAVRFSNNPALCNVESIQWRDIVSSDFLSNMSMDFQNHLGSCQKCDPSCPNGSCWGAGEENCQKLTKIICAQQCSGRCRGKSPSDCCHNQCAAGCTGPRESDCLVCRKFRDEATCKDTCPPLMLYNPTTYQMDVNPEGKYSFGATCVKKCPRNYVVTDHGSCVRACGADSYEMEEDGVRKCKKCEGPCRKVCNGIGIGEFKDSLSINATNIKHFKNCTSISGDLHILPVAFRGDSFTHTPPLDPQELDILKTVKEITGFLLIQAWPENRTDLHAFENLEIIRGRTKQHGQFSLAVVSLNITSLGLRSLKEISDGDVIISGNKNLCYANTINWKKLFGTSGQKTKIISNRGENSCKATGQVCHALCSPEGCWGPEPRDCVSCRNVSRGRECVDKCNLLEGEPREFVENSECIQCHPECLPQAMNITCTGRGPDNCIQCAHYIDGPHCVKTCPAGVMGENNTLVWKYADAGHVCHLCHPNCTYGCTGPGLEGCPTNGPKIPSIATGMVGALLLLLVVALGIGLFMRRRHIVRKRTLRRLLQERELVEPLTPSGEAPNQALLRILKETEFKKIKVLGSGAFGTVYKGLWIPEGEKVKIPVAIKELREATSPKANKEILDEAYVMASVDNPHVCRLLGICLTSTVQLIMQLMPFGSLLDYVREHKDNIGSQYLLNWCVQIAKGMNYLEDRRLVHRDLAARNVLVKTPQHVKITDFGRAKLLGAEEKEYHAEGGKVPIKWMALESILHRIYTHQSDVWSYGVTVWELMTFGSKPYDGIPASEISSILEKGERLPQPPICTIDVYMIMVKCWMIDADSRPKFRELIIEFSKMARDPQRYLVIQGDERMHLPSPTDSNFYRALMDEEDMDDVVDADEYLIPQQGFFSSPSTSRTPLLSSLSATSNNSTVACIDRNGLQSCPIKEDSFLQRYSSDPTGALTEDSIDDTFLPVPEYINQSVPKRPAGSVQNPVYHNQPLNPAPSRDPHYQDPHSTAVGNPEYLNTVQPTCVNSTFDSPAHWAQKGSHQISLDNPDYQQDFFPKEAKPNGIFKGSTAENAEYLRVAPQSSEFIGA
Readout type: DC50 (nM)

Examples from the recorded data:
DC50 for O=C1CC[C@@H](Nc2ccc(C3CCN(CC(=O)N4CCC(c5ccc(-c6cc(F)c7c(c6)C(=O)N(C(C(=O)Nc6nccs6)c6ncn8c6CCC8)C7)cc5)CC4)CC3)c(F)c2)C(=O)N1 (stereo partly shown) is 24

Lab note: Cn1nc(N2CCC(=O)NC2=O)c2ccc(C3CCN(CC(=O)N4CCN(c5ccc(-c6cc(F)c7c(c6)C(=O)N(C(C(=O)Nc6nccs6)c6ncn8c6CCC8)C7)cc5)CC4)CC3)cc21 (stereo not shown) gave DC50 of 22

O=C1CCC(Nc2ccc(C3CCN(CC(=O)N4CCC(Oc5ccc(-c6cc(F)c7c(c6)C(=O)N(C(C(=O)Nc6nccs6)c6ncn8c6CCC8)C7)cc5)CC4)CC3)cc2F)C(=O)N1 (stereo not shown) yielded DC50 of 22

# DC50 of O=C1CC[C@H](Nc2ccc(C3CCN(CC(=O)N4CCN(c5ccc(-c6cc(F)c7c(c6)C(=O)N(C(C(=O)Nc6nccs6)c6ncn8c6C[C@@H](F)C8)C7)cc5)CC4)CC3)c(F)c2)C(=O)N1 (stereo partly shown) = 12

Sample O=C1CCC(Nc2ccc(C3CCN(CC(=O)N4CCN(c5ccc(-c6cc(F)c7c(c6)C(=O)N(C(C(=O)Nc6nccs6)c6ncn8c6CCC8)C7)cc5)CC4)CC3)c(C(F)F)c2)C(=O)N1 (stereo not shown) ; DC50 observed: 10

I: N#Cc1cc(NC2CCC(=O)NC2=O)ccc1C1CCN(CC(=O)N2CCC(Oc3ccc(-c4cc(F)c5c(c4)C(=O)N(C(C(=O)Nc4nccs4)c4ncn6c4CCC6)C5)cc3)CC2)CC1 (stereo not shown)
II: O=C1CC[C@H](Nc2ccc(C3CCN(CC(=O)N4CCC(Oc5ccc(-c6cc(F)c7c(c6)C(=O)N(C(C(=O)Nc6nccs6)c6ncn8c6CCC8)C7)cc5)CC4)CC3)cc2)C(=O)N1 (stereo partly shown)
// max by DC50 over [ I , II ] Output the label that corresponds to your choice. I

a: O=C1CCC(Nc2ccc(C3CCN(CC(=O)N4CCN(c5ccc(-c6cc(F)c7c(c6)C(=O)N(C(C(=O)Nc6nccs6)c6ncn8c6CCC8)C7)cc5)CC4)CC3)cc2)C(=O)N1 (stereo not shown)
b: O=C1CCC(Nc2ccc(C3CCN(CC(=O)N4CCN(Cc5ccc(-c6cc(F)c7c(c6)C(=O)N(C(C(=O)Nc6nccs6)c6ncn8c6CCC8)C7)cc5)CC4)CC3)c(F)c2)C(=O)N1 (stereo not shown)
Which of these two has the smaller recorded DC50: a or b ? To answer, give the label that identifies your chosen option. b

###

target: EGFR T790M/L858R (NCI-H1975 cells) (Homo sapiens, UniProt P00533, L858R/T790M); construct: NCI-H1975 (harboring EGFR heterozygous T790M/L858R mutations); host or cells: NCI-H1975; assay: EGFR (L858R) degradation analysis, Total EGFR (L858R) HTRF, NCI-H1975 cells; format: cell-based; conditions: 6 hours
Sequence (P00533 25-1210 T790M/L858R): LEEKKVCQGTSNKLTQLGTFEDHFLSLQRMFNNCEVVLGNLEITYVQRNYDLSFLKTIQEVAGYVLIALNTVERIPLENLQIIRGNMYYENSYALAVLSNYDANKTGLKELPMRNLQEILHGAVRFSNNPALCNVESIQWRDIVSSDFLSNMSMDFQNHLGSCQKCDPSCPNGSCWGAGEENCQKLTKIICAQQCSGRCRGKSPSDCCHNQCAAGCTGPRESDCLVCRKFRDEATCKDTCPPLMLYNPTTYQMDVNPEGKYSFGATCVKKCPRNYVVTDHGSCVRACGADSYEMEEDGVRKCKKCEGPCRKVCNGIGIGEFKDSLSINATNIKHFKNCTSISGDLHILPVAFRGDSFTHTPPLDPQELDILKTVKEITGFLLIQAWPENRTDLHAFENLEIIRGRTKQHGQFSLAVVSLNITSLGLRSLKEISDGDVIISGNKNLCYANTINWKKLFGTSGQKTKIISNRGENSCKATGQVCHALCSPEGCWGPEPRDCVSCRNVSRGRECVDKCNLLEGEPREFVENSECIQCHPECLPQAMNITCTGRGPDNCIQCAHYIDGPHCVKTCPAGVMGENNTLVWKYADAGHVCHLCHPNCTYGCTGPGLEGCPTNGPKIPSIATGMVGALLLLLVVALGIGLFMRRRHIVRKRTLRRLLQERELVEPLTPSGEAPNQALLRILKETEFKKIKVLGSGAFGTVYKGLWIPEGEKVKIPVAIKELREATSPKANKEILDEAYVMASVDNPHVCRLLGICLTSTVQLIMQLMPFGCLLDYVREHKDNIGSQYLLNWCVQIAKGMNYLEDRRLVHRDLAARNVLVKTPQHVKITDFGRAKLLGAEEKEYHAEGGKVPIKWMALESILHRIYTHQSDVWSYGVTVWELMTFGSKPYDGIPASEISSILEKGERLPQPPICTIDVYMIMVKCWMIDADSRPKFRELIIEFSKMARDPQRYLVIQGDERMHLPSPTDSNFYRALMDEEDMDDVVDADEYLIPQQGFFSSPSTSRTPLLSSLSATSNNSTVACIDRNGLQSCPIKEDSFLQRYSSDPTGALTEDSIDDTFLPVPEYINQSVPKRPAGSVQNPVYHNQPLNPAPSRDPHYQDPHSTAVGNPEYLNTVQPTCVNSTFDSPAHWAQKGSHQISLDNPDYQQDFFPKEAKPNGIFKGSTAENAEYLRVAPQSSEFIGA
Readout type: DC50 (nM)

Entry under test: O=C1CCC(Nc2ccc(C3CCN(CC(=O)N4CCC(Oc5ccc(-c6cc(F)c7c(c6)C(=O)N(C(C(=O)Nc6nccs6)c6ncn8c6CCC8)C7)cc5)CC4)CC3)cc2)C(=O)N1 (centres unmarked) [Compound 31] . Its DC50 was 32

So, O=C1CC[C@H](Nc2ccc(C3CCN(CC(=O)N4CCN(c5ccc(-c6cc(F)c7cn(C(C(=O)Nc8nccs8)c8ncn9c8CCC9)nc7c6)cn5)CC4)CC3)c(F)c2)C(=O)N1 (some centres unmarked) [Compound 68] ? Its DC50 was 28

I: O=C1CCC(Nc2ccc(CC(=O)N3CCC(NC(=O)c4ccc(C#Cc5cc(F)c6c(c5)C(=O)N(C(C(=O)Nc5nccs5)c5ncn7c5CCC7)C6)cn4)CC3)cc2)C(=O)N1 (centres unmarked) [Compound 2]
II: O=C1CCC(Nc2ccc(C3CCN(CC(=O)N4CCN(c5ccc(-c6cc(F)c7cn(C(C(=O)Nc8nccs8)c8ncn9c8CCC9)nc7c6)cn5)CC4)CC3)cc2)C(=O)N1 (centres unmarked) [Compound 65]
III: O=C1CC[C@H](Nc2ccc(C3CCN(CC(=O)N4CC[C@H](Oc5ccc(-c6cc(F)c7c(c6)C(=O)N(C(C(=O)Nc6nccs6)c6ncn8c6CCC8)C7)cc5)C4)CC3)cc2)C(=O)N1 (some centres unmarked) [Compound 42]
Arrange by DC50, high to low. I'd appreciate it if you listed the labels in the requested order. II, III, I
(II: 36 nM, III: 20 nM, I: 7 nM)
